Source: ChEMBL document CHEMBL1811770

target: UniProtKB P14842; test: Displacement of [3H]ketanserin from 5HT2A receptor in rat cortex membrane at 10^-6 M by radioligand binding assay; format: cell membranes
Sequence (P14842 whole entry): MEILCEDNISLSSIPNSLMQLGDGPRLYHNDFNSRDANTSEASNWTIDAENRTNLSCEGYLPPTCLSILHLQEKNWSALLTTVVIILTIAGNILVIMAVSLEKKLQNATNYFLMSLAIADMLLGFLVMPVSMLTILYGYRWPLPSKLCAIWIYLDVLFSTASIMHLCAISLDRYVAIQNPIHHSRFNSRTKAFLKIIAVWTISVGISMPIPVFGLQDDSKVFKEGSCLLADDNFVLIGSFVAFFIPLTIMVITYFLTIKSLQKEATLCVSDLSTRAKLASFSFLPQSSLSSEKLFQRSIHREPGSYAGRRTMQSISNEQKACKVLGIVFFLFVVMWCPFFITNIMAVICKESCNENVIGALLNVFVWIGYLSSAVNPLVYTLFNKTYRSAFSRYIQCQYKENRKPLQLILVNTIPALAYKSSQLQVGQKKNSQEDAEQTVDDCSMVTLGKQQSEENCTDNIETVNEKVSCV
Each record here notes measured inhibition.
# number only, unit % dropped from output

Worked cases, inhibition given:
O=c1c2cnc3ccccc3c2ncn1CCCN1CCN(c2cccc(C(F)(F)F)c2)CC1 :: 44
COc1ccccc1N1CCN(CCn2cnc3c(cnc4cc(C)ccc43)c2=O)CC1 :: 19
COc1ccccc1N1CCN(CCCn2cnc3c(cnc4cc(C)ccc43)c2=O)CC1 :: 18
Cc1ccc2ncc3c(=O)n(CCCCN4CCN(c5ccc(F)cc5)CC4)cnc3c2c1 :: 56
COc1ccc(N2CCN(CCn3cnc4c(cnc5ccccc54)c3=O)CC2)cc1 :: 28
Cc1ccc2c(c1)ncc1c(=O)n(CCCCN3CCN(c4cccc(Cl)c4)CC3)cnc12 :: 62
O=c1c2cnc3ccccc3c2ncn1CCCCN1CCN(c2ccccc2)CC1 :: 76
Cc1ccc2ncc3c(=O)n(CCCCN4CCN(c5cccc(Cl)c5)CC4)cnc3c2c1 :: 57
O=c1c2cnc3ccccc3c2ncn1CCN1CCN(c2ccccc2)CC1 :: 26

Proceed to the following item.
(Q) Which inhibition is reported for this compound? `O=c1c2cnc3ccccc3c2ncn1CCCCN1CCN(c2ccccc2Cl)CC1`
(A) 72
